assay-target: norepinephrine transporter (NET) (Rattus norvegicus, UniProt Q63380)
Sequence (Q63380 1-617): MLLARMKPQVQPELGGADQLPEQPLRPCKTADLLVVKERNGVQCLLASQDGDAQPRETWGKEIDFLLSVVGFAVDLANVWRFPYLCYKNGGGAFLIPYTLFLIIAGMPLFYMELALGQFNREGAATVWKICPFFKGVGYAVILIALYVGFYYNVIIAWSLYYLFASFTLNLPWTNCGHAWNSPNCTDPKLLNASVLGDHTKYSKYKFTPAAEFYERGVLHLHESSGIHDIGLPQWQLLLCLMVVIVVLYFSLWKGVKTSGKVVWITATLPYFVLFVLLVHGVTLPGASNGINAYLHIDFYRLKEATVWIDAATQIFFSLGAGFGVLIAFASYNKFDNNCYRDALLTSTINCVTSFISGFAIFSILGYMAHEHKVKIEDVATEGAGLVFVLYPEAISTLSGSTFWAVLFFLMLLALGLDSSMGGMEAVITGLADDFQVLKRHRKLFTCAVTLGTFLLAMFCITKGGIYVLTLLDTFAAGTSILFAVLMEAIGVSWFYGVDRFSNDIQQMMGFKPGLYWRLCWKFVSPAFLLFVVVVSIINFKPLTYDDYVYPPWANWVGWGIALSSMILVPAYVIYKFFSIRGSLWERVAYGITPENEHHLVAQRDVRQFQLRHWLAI
condition-description: read-out: Ki (nM) ± S.E.M. NET; rat brain membranes; Table 1 thioacetamides and sulfinylacetamides
Please provide measured Ki for the entries that follow.

Solved entries:
| molecule | assay-target | Ki |
| --- | --- | --- |
| NC(=O)CSC(c1ccccc1)c1ccccc1 [Compound 2a, 2-(Benzhydrylthio)acetamide] | norepinephrine transporter (NET) (Rattus norvegicus, UniProt Q63380) | > 100000 nM |
| CCCNC(=O)CSC(c1ccc(F)cc1)c1ccc(F)cc1 | norepinephrine transporter (NET) (Rattus norvegicus, UniProt Q63380) | 61700 nM |

Report Ki for every entry below.
1. O=C(CSC(c1ccc(Br)cc1)c1ccc(Br)cc1)NCC1CC1
2. CCCCNC(=O)CSC(c1ccccc1)c1ccccc1 [Compound 2r, 2-(Benzhydrylthio)-N-butylacetamide]
3. O=C(CSC(c1ccc(F)cc1)c1ccc(F)cc1)NCCCc1ccccc1

Completion:
> 100000 nM
> 100000 nM
> 100000 nM

---

assay-explanation: Plasma pharmacokinetics in mice, 10 mg/kg i.v. and p.o.
condition-description: male, CD1, mouse, in vivo, iv, 10 mg/kg
Experimental: Plasma was harvested from blood by centrifugation. Additionally at two selected time points (i.e. 30 min and 2 h) brains were collected following both oral and IV dosing. Samples were extracted from plasma by a single one-step protein precipitation method (as described in bioanalysis section below). […] Once extracted, the samples were analyzed via LC/MS/MS (as described in bioanalysis section below). […]
readout-kind: Tmax (min)
Give bare numbers, in min.

Prompt: Please give measured Tmax of the following entry: Fc1ccc(C(SCCNCCCc2ccccc2)c2ccc(F)cc2)cc1
Completion: 4.8

---

assay-target: serotonin transporter (SERT) (Rattus norvegicus (Rat), UniProt P31652)
Sequence (P31652 whole entry): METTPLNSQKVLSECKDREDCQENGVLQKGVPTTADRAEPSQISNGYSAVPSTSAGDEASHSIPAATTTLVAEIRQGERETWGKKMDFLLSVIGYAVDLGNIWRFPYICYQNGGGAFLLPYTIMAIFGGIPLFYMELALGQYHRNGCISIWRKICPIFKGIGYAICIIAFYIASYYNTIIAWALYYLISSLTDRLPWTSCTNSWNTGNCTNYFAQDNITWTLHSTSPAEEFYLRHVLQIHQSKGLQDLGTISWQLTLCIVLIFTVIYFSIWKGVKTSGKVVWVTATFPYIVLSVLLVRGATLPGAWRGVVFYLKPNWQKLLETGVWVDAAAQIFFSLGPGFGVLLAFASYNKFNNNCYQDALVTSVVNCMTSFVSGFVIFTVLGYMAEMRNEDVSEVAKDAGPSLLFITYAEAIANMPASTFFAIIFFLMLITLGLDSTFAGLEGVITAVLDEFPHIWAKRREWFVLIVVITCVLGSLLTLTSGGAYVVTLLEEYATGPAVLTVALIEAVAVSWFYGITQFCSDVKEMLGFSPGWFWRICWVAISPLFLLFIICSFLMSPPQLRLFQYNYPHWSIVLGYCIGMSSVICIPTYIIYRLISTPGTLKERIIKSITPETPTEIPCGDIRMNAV
condition-description: read-out: Ki (nM) ± S.E.M. SERT; rat brain membranes; Table 1 thioacetamides and sulfinylacetamides
Checkbox rule: Ki lower than 7000 nM = label 1; Ki not lower than 7000 nM = label 0.

| compound | answer-label |
| --- | --- |
| CNC(=O)C[S+]([O-])C(c1ccccc1)c1ccccc1 (stereo not shown) [Compound 3f, 2-(Benzhydrylsulfinyl)-N-methylacetamide] | label 0 |
| CNC(=O)CSC(c1ccc(Br)cc1)c1ccc(Br)cc1 | label 1 |
| O=C(CSC(c1ccc(F)cc1)c1ccc(F)cc1)NCCCc1ccccc1 | label 1 |
| O=C(CSC(c1ccc(Br)cc1)c1ccc(Br)cc1)NCCCc1ccccc1 | label 0 |
| CNC(=O)CSC(c1ccc(Cl)cc1)c1ccc(Cl)cc1 | label 0 |

Prompt: Item O=C(CSC(c1ccc(Br)cc1)c1ccc(Br)cc1)NCCCCc1ccccc1 : Ki beneath 7000 nM, strictly?
Completion: label 0

Prompt: Lab note: Ki threshold 7000 nM. Does this compound come in strictly under it? NC(=O)CSC(c1ccc(Cl)cc1)c1ccc(Cl)cc1 [Compound 100, reference compound]
Completion: label 0

Prompt: # check: Ki < 7000 nM for CCCNC(=O)CSC(c1ccc(F)cc1)c1ccc(F)cc1
Completion: label 0

Prompt: Just wondering, is Ki of CCCNC(=O)CSC(c1ccccc1)c1ccccc1 [Compound 2k, 2-(Benzhydrylthio)-N-propylacetamide] below 7000 nM?
Completion: label 0

Prompt: Hello, I'm reviewing records and need to know if Ki of CNC(=O)CSC(c1ccccc1)c1ccccc1 [Compound 2g, 2-(Benzhydrylthio)-N-methylacetamide] is below 7000 nM. Could you check?
Completion: label 0

Prompt: Could you please tell me whether Ki recorded for CCCCNC(=O)CSC(c1ccccc1)c1ccccc1 [Compound 2r, 2-(Benzhydrylthio)-N-butylacetamide] is less than 7000 nM?
Completion: label 0

Prompt: Decide: Ki of O=C(C[S+]([O-])C(c1ccc(Br)cc1)c1ccc(Br)cc1)NCCCc1ccccc1 (stereo not shown) strictly below 7000 nM?
Completion: label 1

Prompt: Strictly below 7000 nM: is that where Ki of NC(=O)CSC(c1cccc(Cl)c1)c1cccc(Cl)c1 sits?
Completion: label 0

Prompt: Determine if C=CCNC(=O)CSC(c1ccccc1)c1ccccc1 [Compound 2j, N-Allyl-2-(benzhydrylthio)acetamide] shows Ki strictly lower than 7000 nM.
Completion: label 0

Prompt: # check: Ki < 7000 nM for CCCNC(=O)CSC(c1ccc(Cl)cc1)c1ccc(Cl)cc1
Completion: label 0

---

Exercise: state measured pKi for each of the compounds provided.
assay-target: Sigma 2 (Homo sapiens (Human))
Sequence (Q5BJF2 whole entry): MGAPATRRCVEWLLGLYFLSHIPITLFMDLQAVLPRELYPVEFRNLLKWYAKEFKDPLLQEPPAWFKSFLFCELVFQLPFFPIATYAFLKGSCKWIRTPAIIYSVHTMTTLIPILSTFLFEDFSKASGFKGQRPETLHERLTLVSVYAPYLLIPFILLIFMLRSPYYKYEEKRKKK
assay-explanation: Sigma 2 binding affinity (Table 5)
Give bare numbers, as −log10 of the molar value.

| compound | pKi |
| --- | --- |
| CC(O)CN1CCN(CCSC(c2ccccc2)c2ccccc2)CC1 (racemic) | 7.03 |
| c1ccc(CCCN2CCN(CCSC(c3ccccc3)c3ccccc3)CC2)cc1 | 7.77 |
| O=C(CSC(c1ccccc1)c1ccccc1)N1CCN(CCCc2ccccc2)CC1 [Compound 11a] | 6.11 |
| Fc1ccc(C(SCCN2CCN(CCCc3ccccc3)CC2)c2ccc(F)cc2)cc1 | 7.55 |

Provide reported pKi for each item, in the same order as listed.
1. OC(Cc1ccccc1)CN1CCN(CCSC(c2ccc(F)cc2)c2ccc(F)cc2)CC1 (racemic)
2. [O-][S+](CCN1CCN(CCCc2ccccc2)CC1)C(c1ccccc1)c1ccccc1 (stereo not drawn)

Completion:
1: 7.41; 2: 7.69

---

Kindly supply the reported Ki values for the records listed here.
assay-target: dopamine transporter (DAT) (Rattus norvegicus (Rat), UniProt P23977)
Sequence (P23977 whole entry): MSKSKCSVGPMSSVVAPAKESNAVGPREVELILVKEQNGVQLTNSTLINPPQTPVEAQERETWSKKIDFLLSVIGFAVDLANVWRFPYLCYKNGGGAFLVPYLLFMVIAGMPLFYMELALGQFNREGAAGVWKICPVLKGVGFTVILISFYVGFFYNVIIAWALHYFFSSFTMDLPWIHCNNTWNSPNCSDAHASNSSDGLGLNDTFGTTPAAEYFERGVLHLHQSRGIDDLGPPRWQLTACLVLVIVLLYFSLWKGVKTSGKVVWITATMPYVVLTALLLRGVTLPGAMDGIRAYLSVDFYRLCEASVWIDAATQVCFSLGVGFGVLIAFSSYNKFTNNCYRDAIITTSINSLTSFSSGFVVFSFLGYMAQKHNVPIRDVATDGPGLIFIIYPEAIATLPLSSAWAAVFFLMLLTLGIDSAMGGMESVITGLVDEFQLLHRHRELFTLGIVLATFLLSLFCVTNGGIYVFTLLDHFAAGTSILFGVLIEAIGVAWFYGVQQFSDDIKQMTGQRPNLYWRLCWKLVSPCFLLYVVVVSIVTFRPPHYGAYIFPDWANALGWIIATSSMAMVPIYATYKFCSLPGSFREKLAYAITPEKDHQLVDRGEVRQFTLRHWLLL
assay-explanation: Dopamine Transporter Binding Assay ([3H]WIN 35428, rat striatal membranes)
condition-description: read-out: Ki (nM) ± S.E.M. DAT

Previously resolved entries follow.
| compound | assay-target | value-measured |
| --- | --- | --- |
| NC(=O)CSC(c1ccc(Cl)cc1)c1ccc(Cl)cc1 [Compound 100, reference compound] | dopamine transporter (DAT) (Rattus norvegicus (Rat), UniProt P23977) | 2230 nM |
| c1ccc(C(SCCNCC2CC2)c2ccccc2)cc1 | dopamine transporter (DAT) (Rattus norvegicus (Rat), UniProt P23977) | 437 nM |
| Brc1ccc(C(SCCNCCCc2ccccc2)c2ccc(Br)cc2)cc1 | dopamine transporter (DAT) (Rattus norvegicus (Rat), UniProt P23977) | 618 nM |
| [O-][S+](CCNCCCc1ccccc1)C(c1ccccc1)c1ccccc1 (centres unmarked) [Compound 200, reference compound] | dopamine transporter (DAT) (Rattus norvegicus (Rat), UniProt P23977) | 194 nM |
| O=C(CSC(c1ccccc1)c1ccccc1)NCCCc1ccccc1 | dopamine transporter (DAT) (Rattus norvegicus (Rat), UniProt P23977) | 2020 nM |

I would be grateful if you could provide Ki for each of the following entries.
1. NCCSC(c1ccc(Br)cc1)c1ccc(Br)cc1
2. O=C(CSC(c1ccccc1)c1ccccc1)NCCCCc1ccccc1
3. NCCSC(c1ccccc1)c1ccccc1 [Compound 4a, 2-(benzhydrylthio)ethan-1-amine]

Completion:
488 nM
1160 nM
143 nM

---

assay-target: norepinephrine transporter (NET) (Rattus norvegicus)
condition-description: read-out: Ki (nM) ± S.E.M. NET; rat brain membranes; Table 2 thioethanamines and sulfinylethanamines
readout-kind: Ki (nM)
One number for each entry, in nM.

Consider the following illustrative entries.
| compound | output-unit | value-measured |
| --- | --- | --- |
| NCCSC(c1ccccc1)c1ccccc1 [Compound 4a, 2-(benzhydrylthio)ethan-1-amine] | nM | 982 |
| [O-][S+](CCNCCCc1ccccc1)C(c1ccc(F)cc1)c1ccc(F)cc1 (stereo not shown) [Compound 5c] | nM | 3280 |
| CCCCNCCSC(c1ccccc1)c1ccccc1 [Compound 4e, N-(2-(benzhydrylthio)ethyl)butan-1-amine] | nM | 11500 |
| [O-][S+](CCNCCCc1ccccc1)C(c1ccc(Cl)cc1)c1ccc(Cl)cc1 (stereo not shown) [Compound 5d] | nM | 5800 |
| c1ccc(CCCNCCSC(c2ccccc2)c2ccccc2)cc1 [Compound 4f] | nM | 3910 |

Attention now shifts to the item below.
Prompt: Could you please provide reported Ki for [O-][S+](CCNCCCc1ccccc1)C(c1ccc(Br)cc1)c1ccc(Br)cc1 (stereo not shown) [Compound 5e] ? Thanks!
Completion: 7580

---

Provide the recorded Ki for the entries that follow.
assay-target: Sigma 1 (Homo sapiens (Human), UniProt Q99720)
Sequence (Q99720 whole entry): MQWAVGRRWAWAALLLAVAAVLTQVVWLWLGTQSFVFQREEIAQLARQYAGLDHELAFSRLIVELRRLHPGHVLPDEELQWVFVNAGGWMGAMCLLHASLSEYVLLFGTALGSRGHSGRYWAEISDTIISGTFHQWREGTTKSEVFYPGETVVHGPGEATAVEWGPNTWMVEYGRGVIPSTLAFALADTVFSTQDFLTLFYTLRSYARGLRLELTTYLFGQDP
assay-explanation: Sigma 1 binding affinity (Table 5)
condition-description: Table 5 piperazinyl derivatives; read-out: Sigma 1 Ki ± SEM
One number for each entry, in nM.

Record Ki for all entries; do not skip any.
1. CC(O)CN1CCN(CC[S+]([O-])C(c2ccc(F)cc2)c2ccc(F)cc2)CC1 (racemic) [Compound 10d]
2. CC(O)CN1CCN(CC[S+]([O-])C(c2ccccc2)c2ccccc2)CC1 (racemic) [Compound 10a]
3. [O-][S+](CCN1CCN(CCCc2ccccc2)CC1)C(c1ccc(F)cc1)c1ccc(F)cc1 (stereo not shown) [Compound 8b]
4. O=C(C[S+]([O-])C(c1ccccc1)c1ccccc1)N1CCN(CCCc2ccccc2)CC1 (stereo not shown) [Compound 12a]
5. OC(Cc1ccccc1)CN1CCN(CCSC(c2ccccc2)c2ccccc2)CC1 (racemic) [Compound 9g]

Completion:
[1010, 861, 42.4, 1430, 30]

Report Ki for each item below.
1. [O-][S+](CCN1CCN(CC(O)Cc2ccccc2)CC1)C(c1ccccc1)c1ccccc1 (racemic) [Compound 10g]
2. CC(O)CN1CCN(CCSC(c2ccc(F)cc2)c2ccc(F)cc2)CC1 (racemic) [Compound 9d]

Completion:
1. 983
2. 4.03
